System: breast cancer patients
run-description: Retrospective survival analysis of electronic medical records of breast cancer patients
Format: in vivo, human
conditions-used: versus No PPI, Caucasian (CA) patients
experimental-endpoint: HR, overall survival

>>> numeric_value("Cc1c(OCC(F)(F)F)ccnc1C[S+]([O-])c1nc2ccccc2[nH]1 (centres unmarked)")
0.18
>>> numeric_value("COc1ccc2nc([S@@+]([O-])Cc3ncc(C)c(OC)c3C)[nH]c2c1")
0.35
>>> numeric_value("COCCCOc1ccnc(C[S+]([O-])c2nc3ccccc3[nH]2)c1C (centres unmarked)")
0.5031
>>> numeric_value("COc1ccc2[nH]c([S+]([O-])Cc3ncc(C)c(OC)c3C)nc2c1 (centres unmarked)")
0.27
>>> numeric_value("COc1ccnc(C[S+]([O-])c2nc3ccc(OC(F)F)cc3[nH]2)c1OC (centres unmarked)")
0.18

###

Test system: MDA-MB-231 cells
run-description: Colony formation survival assay, MDA-MB-231 cells
Format: cell-based
conditions-used: Homo sapiens, single agent, read-out: IC50, cell survival
pIC50: −log10 of the molar value.
experimental-endpoint: pIC50

>>> numeric_value("Cc1c(OCC(F)(F)F)ccnc1C[S+]([O-])c1nc2ccccc2[nH]1 (stereo not shown)")
4.67

###

Below: a set of entries, each annotated with reported HR, overall survival.
System: breast cancer patients
run-description: Retrospective survival analysis of electronic medical records of breast cancer patients
Type: in vivo, human
conditions-used: versus No PPI, African American (AA) patients
Method: FIG. 16. Retrospective survival analysis of breast cancer patients with or without use of proton pump inhibitors (PPIs). […] The p-value and hazard ratio (HR) were calculated from Cox proportional hazard models, which were adjusted for age, tumor stage, and time of first diagnosis. […]
experimental-endpoint: HR, overall survival

>>> numeric_value("COc1ccc2nc([S@@+]([O-])Cc3ncc(C)c(OC)c3C)[nH]c2c1")
0.49
>>> numeric_value("COc1ccc2[nH]c([S+]([O-])Cc3ncc(C)c(OC)c3C)nc2c1 (stereo not shown)")
0.33
>>> numeric_value("COc1ccnc(C[S+]([O-])c2nc3ccc(OC(F)F)cc3[nH]2)c1OC (stereo not shown)")
0.59

###

System: MCF7 cells
run-description: Colony formation survival assay, MCF7 cells
Type: cell-based, human
conditions-used: Homo sapiens; single agent, MCF7 cells, colony formation; read-out: IC50, cell survival
experimental-endpoint: IC50 (µM)

>>> numeric_value("O=C(c1cc(Cc2n[nH]c(=O)c3ccccc23)ccc1F)N1CCN(C(=O)C2CC2)CC1 [olaparib]")
1
>>> numeric_value("Cc1c(OCC(F)(F)F)ccnc1C[S+]([O-])c1nc2ccccc2[nH]1 (centres unmarked) [lansoprazole]")
1.3

###

System: breast cancer patients
run-description: Retrospective survival analysis of electronic medical records of breast cancer patients
Format: in vivo, human
conditions-used: single-PPI users versus No PPI, all breast cancer patients
Method: FIG. 16. Retrospective survival analysis of breast cancer patients with or without use of proton pump inhibitors (PPIs). […] The p-value and hazard ratio (HR) were calculated from Cox proportional hazard models, which were adjusted for age, tumor stage, and time of first diagnosis. […]
experimental-endpoint: HR (CoxPH ratio), overall survival

>>> result("COCCCOc1ccnc(C[S+]([O-])c2nc3ccccc3[nH]2)c1C (centres unmarked)")
0.47
>>> result("Cc1c(OCC(F)(F)F)ccnc1C[S+]([O-])c1nc2ccccc2[nH]1 (centres unmarked)")
0.17
>>> result("COc1ccc2[nH]c([S+]([O-])Cc3ncc(C)c(OC)c3C)nc2c1 (centres unmarked)")
0.28
>>> result("COc1ccnc(C[S+]([O-])c2nc3ccc(OC(F)F)cc3[nH]2)c1OC (centres unmarked)")
0.32
>>> result("COc1ccc2nc([S@@+]([O-])Cc3ncc(C)c(OC)c3C)[nH]c2c1")
0.44
